# TESTED SYSTEM: T1, human melanocortin receptor subtype 3 (hMC3-R) (human, UniProt P41968 1-323)
# T1 construct: whole, on cells; membranes of CHO-K1 cells
# T1 sequence (P41968 whole entry): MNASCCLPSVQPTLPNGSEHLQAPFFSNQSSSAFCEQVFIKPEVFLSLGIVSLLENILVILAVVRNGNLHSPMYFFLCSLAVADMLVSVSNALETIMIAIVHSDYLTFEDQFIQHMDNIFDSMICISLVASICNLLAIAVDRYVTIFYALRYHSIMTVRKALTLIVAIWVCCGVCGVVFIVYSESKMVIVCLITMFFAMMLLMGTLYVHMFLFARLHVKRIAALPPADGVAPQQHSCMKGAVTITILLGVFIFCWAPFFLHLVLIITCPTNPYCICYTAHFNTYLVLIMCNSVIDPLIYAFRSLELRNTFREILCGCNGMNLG
# MEASUREMENT PROTOCOL: [125I]-NDP-α-MSH competition, membranes
pKi: −log10 of the molar value. Bridge positions count the residues as written; N and C are the ends. Square brackets hold non-standard residues; d marks the D form. Ends that are not written are not given here. d2Nal = N[C@H](Cc1ccc2ccccc2c1)C(=O)O; Ac5c = NC1(C(=O)O)CCCC1

[
  {
    "BINDER": "XCAHFRWCXYGRKKRRQRRR (N-terminal Ac; Nle at 1; D-Ala at 3; D-Phe at 5; Doc at 9; disulfide Cys2-Cys8; C-terminal NH2) [Ac-Nle-c(Cys-D-Ala-His-D-Phe-Arg-Trp-Cys)-Doc-Tyr-Gly-Arg-Lys-Lys-Arg-Arg-Gln-Arg-Arg-Arg-NH2]",
    "pKi": 9.16
  },
  {
    "BINDER": "XCAHFRWCXXYGRKKRRQRRR (N-terminal Ac; Nle at 1; D-Ala at 3; D-Phe at 5; Doc at 9 and 10; disulfide Cys2-Cys8; C-terminal NH2) [Ac-Nle-c(Cys-D-Ala-His-D-Phe-Arg-Trp-Cys)-(Doc)2-Tyr-Gly-Arg-Lys-Lys-Arg-Arg-Gln-Arg-Arg-Arg-NH2]",
    "pKi": 9.18
  },
  {
    "BINDER": "D[Ac5c][d2Nal]RWK-NH2 (lactam 1-6; also: hydantoin ring: N-terminal N of Asp1 and backbone N of residue 2 bridged by one C(O), bridge at N via C(O), other end not in the chain) [c[Hydantoin(C(O)-(Asp-A5c))-D-2-Nal-Arg-Trp-Lys]-NH2]",
    "pKi": 5.62
  }
]
